# System: SEM cells
# assay overview: cell viability relative to DMSO control; higher = less cytotoxic
# run parameters: RPMI 5 mM glucose + 10% FBS; 48 h; 0.00702 µM
# cell viability listing for each entry below
Report only the number, with the unit % understood.

For orientation, consider the following solved cases.
>>> reported("COc1cc2ncnc(Nc3cc(Br)c(O)c(Br)c3)c2cc1OC")
118
>>> reported("Cn1cnc2c1c(=O)[nH]c(=O)n2C")
106
>>> reported("Cc1[nH]c2ccccc2c1CCNCc1ccc(/C=C/C(=O)NO)cc1")
101
>>> reported("C[N]1C=C(C2=C1C=CC=C2)\\C3=C(\\C(=O)NC3=O)C4=C5CC(CN)CC[N]5C6=C4C=CC=C6 (stereo unspecified)")
98.1
>>> reported("CN1CCCN=C1/C=C/c1cccs1.O=C(O)c1cc2ccccc2c(Cc2c(O)c(C(=O)O)cc3ccccc23)c1O")
128

Result for C[C@@H]1[C@H](O)[C@@H](C)/C=C/C=C/C=C/C=C/C=C/C=C/C=C/[C@H](O[C@@H]2O[C@H](C)[C@@H](O)[C@H](N)[C@@H]2O)C[C@@H]2O[C@](O)(C[C@@H](O)C[C@@H](O)[C@H](O)CC[C@@H](O)C[C@@H](O)CC(=O)O[C@H]1C)C[C@H](O)[C@H]2C(=O)O , tested on SEM cells, cell viability: 110

Tested system SEM cells; cell viability recorded for CC(C)C(=O)Oc1ccc(CO)cc1[C@H](CCN(C(C)C)C(C)C)c1ccccc1 was 91.8

With SEM cells as the test system, CNc1nccc(-c2cccnc2Oc2cc(C(=O)Nc3cccc(C(F)(F)F)c3)ccc2C)n1 showed cell viability of 99.8

Reading of cell viability for C[S+]([O-])(=O)C1=CC=C(C=C1)C/2=C(/C(=O)OC2)C3=CC=CC=C3 with SEM cells: 104

The measured cell viability that CC(C)C(=O)Nc1ccc([N+](=O)[O-])c(C(F)(F)F)c1 showed for SEM cells is 119

SEM cells data for COc1ccc(C(C)=O)c(O)c1 ; its cell viability: 118

====

cell viability values for the compounds below.
# Test system: SEM cells
# assay overview: cell viability relative to DMSO control; higher = less cytotoxic
# run parameters: HPLM + 10% dialyzed FBS; 48 h; 15.4 µM
# output: bare number, implied unit %

>>> reported("O=C(Nc1ccccc1-c1cn2c(CN3CCNCC3)csc2n1)c1cnc2ccccc2n1")
48.3
>>> reported("Nc1nc(Cl)nc2c1ncn2[C@H]1C[C@H](O)[C@@H](CO)O1")
9.89
>>> reported("Fc1ccc([C@@H]2CCNC[C@H]2COc2ccc3c(c2)OCO3)cc1")
58.9

// moving on: another record for cell viability
Value of measured cell viability for the entry S=C1N\C=N/C2=C1[NH]C=N2 : 90.6

====

# System: NOMO1
# assay overview: cell viability relative to DMSO control; higher = less cytotoxic
# run parameters: HPLM + 10% dialyzed FBS; 48 h; 15.4 µM
Each record's class is read off its cell viability using these ranges: LOW (below 70%), MID (70% to below 90%), HIGH (90% or more)

Before answering, review these 6 worked examples.
>>> qualitative_label("Cc1cnc(NC(=O)Nc2cc(Br)c(C)cc2OC[C@@H]2CNCCO2)cn1")
"LOW"
>>> qualitative_label("CN1CCN(c2ccc([N+](=O)[O-])c3no[n+]([O-])c23)CC1")
"MID"
>>> qualitative_label("COC1=C2OC(=O)\\C=C/C2=CC3=C1OC=C3")
"HIGH"
>>> qualitative_label("C/C=C1\\C2C=C(C)CC1(N)c1ccc(=O)[nH]c1C2 (stereo not given)")
"HIGH"
>>> qualitative_label("O=C(Nc1ccccc1-c1cn2c(CN3CCNCC3)csc2n1)c1cnc2ccccc2n1")
"MID"
>>> qualitative_label("O=c1[nH]c2ccccc2n1C1CCN(Cc2ccc(-c3nc4cc5nc[nH]c5cc4nc3-c3ccccc3)cc2)CC1")
"HIGH"

Each compound maps to one class by cell viability. Which class for Cc1[nH]c2ccccc2c1CCNCc1ccc(/C=C/C(=O)NO)cc1 ?
LOW

The entry to classify is CC(C)=CC[C@@H](O)C/1=C/C(=O)C2=C(O)C=CC(=C2C1=O)O ; which class holds it?
LOW

Which of the defined bands does the recorded cell viability of CCOC(=O)\C1=C(/C)N\C2=C(C1C3=CC=C(C=C3)C4=CC=CC=C4)\C(=O)CC(C)(C)C2 (stereo not given) sit within?
MID

Ref: the supplement of paper PMC11451515
